Assay procedure: Neurotoxicity in ip dosed Mus musculus (mouse) assessed as minimal motor impairment by rotorod test
Assay type: toxicity, organism-based
Condition summary: in vivo
Measured property: TD50

>>> observed("CCC(COC(N)=O)c1ccccc1 (racemic)")
"114 mg/kg"

Origin of measurements: ChEMBL document CHEMBL3046477
